Target: T1, Noggin (UniProt Q13253 28-232)
T1 sequence (looked up): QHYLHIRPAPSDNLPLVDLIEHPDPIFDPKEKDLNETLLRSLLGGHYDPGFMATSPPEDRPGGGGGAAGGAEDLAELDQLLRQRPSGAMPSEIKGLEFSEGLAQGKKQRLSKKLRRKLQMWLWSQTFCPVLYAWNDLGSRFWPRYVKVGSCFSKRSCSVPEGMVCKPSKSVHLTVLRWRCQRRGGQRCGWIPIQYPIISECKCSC
Assay: Noggin affinity; method and unit not stated
MEASUREMENT TYPE: Noggin Affinity

[A] designer BMP-GER-NR (ligand) QAKHKQRKRLKSSCKRHPLYVDFSDVGWNDWIIAPRGYAAFYCDGECSFPLNAHMNATNHAIVQTLVHLMNPEYVPKPCCAPTKLRPMSMLYYDDGQNIIKKDIQNMIVEECGCS
[B] designer BMP-GER (ligand, also called BMPGE P36R) QAKHKQRKRLKSSCKRHPLYVDFSDVGWNDWIIAPRGYAAFYCDGECSFPLNAHMNATNHAIVQTLVHLMNPEYVPKPCCAPTELNAISVLYFDDNSNVILKNYQDMVVEGCGCR
(Q) Thinking about recorded Noggin Affinity values, which is higher, A or B ? Your answer should be the label of the entry you select.
(A) A
(A: 7.5, B: 4)

Cited source: patent US20160207973A1
